- Measured Target: PKC theta (Homo sapiens)
- Sequence (Q04759 whole entry): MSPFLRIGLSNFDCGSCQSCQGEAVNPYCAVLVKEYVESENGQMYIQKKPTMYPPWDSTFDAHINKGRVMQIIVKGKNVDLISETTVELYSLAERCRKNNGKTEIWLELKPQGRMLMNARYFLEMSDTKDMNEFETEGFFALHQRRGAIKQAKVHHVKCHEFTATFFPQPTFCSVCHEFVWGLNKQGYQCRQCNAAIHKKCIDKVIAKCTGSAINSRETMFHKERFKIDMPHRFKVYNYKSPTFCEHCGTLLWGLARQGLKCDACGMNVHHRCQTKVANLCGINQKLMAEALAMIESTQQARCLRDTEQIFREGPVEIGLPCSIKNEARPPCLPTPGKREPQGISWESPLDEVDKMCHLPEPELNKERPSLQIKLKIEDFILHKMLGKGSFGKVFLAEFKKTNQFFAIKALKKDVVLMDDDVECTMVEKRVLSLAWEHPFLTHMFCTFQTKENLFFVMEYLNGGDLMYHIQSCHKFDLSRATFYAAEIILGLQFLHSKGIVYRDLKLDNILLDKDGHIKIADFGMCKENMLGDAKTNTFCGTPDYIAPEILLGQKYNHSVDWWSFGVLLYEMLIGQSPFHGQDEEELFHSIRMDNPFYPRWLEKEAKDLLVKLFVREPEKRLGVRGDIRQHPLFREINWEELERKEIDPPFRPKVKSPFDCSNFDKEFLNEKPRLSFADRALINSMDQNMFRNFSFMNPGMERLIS
Assay Metric: IC50 (µM)
Respond numerically; units are µM and should not be typed.

1) CCN(CC)CCCNc1ccc2ncc(-c3ccccc3)n2n1 [KE1322-011-a]: 5.5
2) CCN(CC)CCCNc1ccc2ncc(-c3cccc(Cl)c3)n2n1 [KE1322-023-a]: 0.25
3) Clc1cccc(-c2cnc3ccc(NCCCn4ccnc4)nn23)c1 [KE1322-014-a]: 7.2
4) CCN(CC)CCCC(C)Nc1ccc2ncc(-c3ccccc3)n2n1 (centres unmarked) [KE1322-010-a]: 5.4
5) Cc1[nH]ncc1CCCNc1ccc2ncc(-c3ccsc3)n2n1 [KE1322-042-a]: 13
6) Clc1cccc(-c2cnc3ccc(NCCCN4CCOCC4)nn23)c1 [OP 3074]: 0.41
7) Clc1cccc(-c2cnc3ccc(NCCCN4CCCC4)nn23)c1 [OP 3073]: 0.25

Proceeding to the next molecule to report its IC50.
Exercise: What does the record list as IC50 for c1ccc(-c2cnc3ccc(NCCCN4CCCC4)nn23)cc1 [OP 3070] ?
Key: 6.1

----------
- System: interleukin 2 (IL-2) secretion of peripheral blood mononuclear cells (PBMC)
- Protocol: Antibody-induced (anti-CD3/anti-CD28) IL-2 secretion in PBMC, ELISA
- Format: cell-based
- Test Parameters: human PBMC, anti-CD3/anti-CD28 stimulation, 20 hours; read-out: IC50 (concentration for 50% inhibition of IL-2)
Assay Metric: IC50 (nM)
Field: numeric (nM). Do not append units.

The cases that follow already have their IC50 on record.
1) Clc1cccc(-c2cnc3ccc(NCCN4CCCC4)nn23)c1: 1000
2) CCN(CC)CCCNc1ccc2ncc(-c3ccccc3)n2n1: 2600
3) Clc1cccc(-c2cnc3ccc(NCCCN4CCCC4)nn23)c1: 210
4) CCN(CC)CCCC(C)Nc1ccc2ncc(-c3cccc(Cl)c3)n2n1 (centres unmarked): 290
5) Cc1[nH]ncc1CCCNc1ccc2ncc(-c3ccsc3)n2n1: 400

Exercise: Sample c1ccc(-c2cnc3ccc(NCCCN4CCCC4)nn23)cc1 — what was its IC50?
Key: 1400

Exercise: Please give the result for CCN(CC)CCCNc1ccc2ncc(-c3cccc(Cl)c3)n2n1 too.
Key: 210

Exercise: Moving on to c1ccc(-c2cnc3ccc(NCCCN4CCOCC4)nn23)cc1
Key: 2500

Exercise: // next record c1ccc(-c2cnc3ccc(NCCCn4ccnc4)nn23)cc1
Key: 1700

Exercise: Try this molecule too: Cc1[nH]ncc1CCCNc1ccc2ncc(-c3ccccc3)n2n1
Key: 2000

Exercise: Proceed to Clc1cccc(-c2cnc3ccc(NCCCn4ccnc4)nn23)c1
Key: 1100

Exercise: Record: CCN(CC)CCCC(C)Nc1ccc2ncc(-c3ccccc3)n2n1 (centres unmarked)
Key: 1100

Exercise: Also, Clc1cccc(-c2cnc3ccc(NCCCN4CCOCC4)nn23)c1 please.
Key: 920

Exercise: Same thing, different molecule: Cc1[nH]ncc1CCCNc1ccc2ncc(-c3cnn(C)c3)n2n1
Key: 700

All values here come from patent US7750000B2.
